Quick list: normalized growth per entry.
# test: chemical genetic growth profiling, strain panel (AID 1159580);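 note: tested at 20 µM; growth read once vehicle control cultures reached saturation at 30 °C; 1 = growth at the plate median or of vehicle wells; lower values mean less growth of the strain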
# assayConditions: S. cerevisiae deletion strains, growth OD, locus YPR163C, strain tif3, stronger effect = lower value
Hit rate of the full screen: of about 5,500 compounds, about 2,000 (36%) were called active. Another 18% or so got no clear call; they are omitted. Some of the results follow.

- compound: "C=C[C@@](C)(O)CCC1C(=C)C[C@H](OC(C)=O)C2C(C)(C)CCCC12C (stereo partly specified)"
  normalized growth: 1.01
- compound: "CN1CCC(OC(c2ccccc2)c2ccccc2)CC1"
  normalized growth: 0.987
- compound: "CC1(C)CCC[C@@]2(C)C1[C@@H](O)C[C@]1(C)C2CC[C@@H]2[C@@]3(C)CC[C@H](C(C)(C)O)[C@@H]3CC[C@@]21C (stereo partly specified)"
  normalized growth: 0.99
- compound: "CCCCC[C@H]1C(=O)O[C@H](C)[C@H](NC(=O)c2cccc(NC=O)c2O)C(=O)O[C@@H](C)[C@@H]1OC(=O)CC(C)C"
  normalized growth: 0.893
- compound: "CN(C)CCOC(c1ccc(Cl)cc1)c1ccccn1 (stereo unspecified)"
  normalized growth: 1
- compound: "O=c1cccc2ccc(O)c(O)c2c1O"
  normalized growth: 0.764
